src = patent US9926269B2

- Procedure Text: Cytotoxicity assay (MTT cell proliferation assay), MDCKII cells
- Format: cell-based
- Conditions: dog, 72 h incubation, read-out: MDCKII LC50
- Description: The cells were grown at 37° C. in a humidified 5% CO2 incubator. Stable transfection of MDCKII cells with human NPC1L1 protein was performed using the Lipofectamine LTX (Invitrogen, USA) according to the manufecturer's protocol. Selection with 1000 μg/mL G418 (Sigma-Aldrich, Germany) was started 2 days after transfection. The concentration of G418 was decreased to 500 μg/mL after 14 days. […]

Compound: O=C1[C@H](NCC(O)c2ccc(F)cc2)[C@@H](c2ccc(O)cc2)N1c1ccc(F)cc1 (mixture of isomers)
CC50 at 72 h: > 100 µM

Compound: O=C1[C@H](NC[C@H](O)c2ccc(F)cc2)[C@@H](c2ccc(O)cc2)N1c1ccc(F)cc1
CC50 at 72 h: > 100 µM

Compound: O=C1[C@H](NC[C@@H](O)c2ccc(F)cc2)[C@@H](c2ccc(O)cc2)N1c1ccc(F)cc1
CC50 at 72 h: > 100 µM
